Values compiled from patent US8624027B2.

System: NCI-H146 human small cell lung carcinoma cells
Test: Cellular efficacy in human tumor cell line (MTS viability assay)
Type: cell-based
Conditions: NCI-H146; 10% human serum, 48 hours; Table 3; read-out: NCI-H146 Cellular Efficacy H146 EC50
pEC50: −log10 of the molar value.
Property label: pEC50

Reference set (2 entries):
CC(C)N(C)CC[C@H](CSc1ccccc1)Nc1ccc(S(=O)(=O)NC(=O)c2ccc(N3CCN(CC4=C(c5ccc(Cl)cc5)CCCC4)CC3)cc2)cc1S(=O)(=O)C(F)(F)F    7.42
CN(C)CC[C@H](CSc1ccccc1)Nc1ccc(S(=O)(=O)NC(=O)c2ccc(N3CCN(CC4=C(c5ccc(Cl)cc5)CCCC4)CC3)cc2)cc1S(=O)(=O)C(F)(F)F    7.62

[A] O=C(NS(=O)(=O)c1ccc(N[C@H](CCN2CCOCC2)CSc2ccccc2)c(S(=O)(=O)C(F)(F)F)c1)c1ccc(N2CCN(CC3=C(c4ccc(Cl)cc4)CCCC3)CC2)cc1
[B] CN(C)CC[C@H](CSc1ccccc1)Nc1ccc(S(=O)(=O)NC(=O)c2ccc(N3CCN(CC4=C(c5ccc(Cl)cc5)CCCC4)CC3)cc2)cc1[N+](=O)[O-] [G, reference compound]
Q: // which entry has the larger pEC50 value, A or B ? Answer format: the label of the selected item.
A: B
(B: 7.59, A: 7.23)

----------
Experiment: Pharmacokinetic evaluation in rat
Format: in vivo
Settings: male, Sprague-Dawley, plasma, single 5 mg/kg oral dose, Table 1, read-out: Pharmacokinetic area under the plasma concentration Curve (rat) AUC0-∞
Property label: AUC(0-inf) (µM·h)

CN(C)CC[C@H](CSc1ccccc1)Nc1ccc(S(=O)(=O)NC(=O)c2ccc(N3CCN(CC4=C(c5ccc(Cl)cc5)CCCCC4)CC3)cc2)cc1S(=O)(=O)C(F)(F)F [Example 17]    0.88

[P] CN(C)CC[C@H](CSc1ccccc1)Nc1ccc(S(=O)(=O)NC(=O)c2ccc(N3CCN(CC4=C(c5ccc(Cl)cc5)CCCC4)CC3)cc2)cc1S(=O)(=O)C(F)(F)Cl [Example 18]
[Q] O=C(NS(=O)(=O)c1ccc(N[C@H](CCN2CCCOCC2)CSc2ccccc2)c(S(=O)(=O)C(F)(F)F)c1)c1ccc(N2CCN(CC3=C(c4ccc(Cl)cc4)CCCC3)CC2)cc1 [Example 15]
[R] CC1(C)CCC(CN2CCN(c3ccc(C(=O)NS(=O)(=O)c4ccc(N[C@H](CCN5CCOCC5)CSc5ccccc5)c(S(=O)(=O)C(F)(F)Cl)c4)cc3)CC2)=C(c2ccc(Cl)cc2)C1 [Example 2]
[S] CC1(C)CCC(c2ccc(Cl)cc2)=C(CN2CCN(c3ccc(C(=O)NS(=O)(=O)c4ccc(N[C@H](CCN5CC6CC5CO6)CSc5ccccc5)c(S(=O)(=O)C(F)(F)Cl)c4)cc3)CC2)C1 (some centres unmarked) [Example 11]
Q: Hey, quick one: sort these by AUC(0-inf), low to high? Please list the labels in the order you were asked to rank them.
A: P, Q, S, R

----------
Assay: Pharmacokinetic evaluation in rat
Format: in vivo
Details: male, Sprague-Dawley, plasma, 5 mg/kg, oral, Table 2, read-out: Pharmacokinetic area under the plasma concentration curve (rat) AUC
Property label: AUC (µM·h)

CN(C)CC[C@H](CSc1ccccc1)Nc1ccc(S(=O)(=O)NC(=O)c2ccc(N3CCN(Cc4ccccc4-c4ccc(Cl)cc4)CC3)cc2)c(F)c1C(F)(F)F [D, reference compound]    3.83

[I] O=C(NS(=O)(=O)c1ccc(N[C@H](CCN2CCOCC2)CSc2ccccc2)c(S(=O)(=O)C(F)(F)F)c1)c1ccc(N2CCN(Cc3ccccc3-c3ccc(Cl)cc3)CC2)cc1 [Example 39]
[II] CN(C)CC[C@H](CSc1ccccc1)Nc1ccc(S(=O)(=O)NC(=O)c2ccc(N3CCN(Cc4ccccc4-c4ccc(Cl)cc4)CC3)cc2)cc1[N+](=O)[O-] [B, reference compound]
Q: Of I and II , which one carries the higher reported AUC? Write down the label of the entry you select.
A: I

----------
Experiment: Pharmacokinetic evaluation in rat
Assay type: in vivo
Settings: male, Sprague-Dawley, plasma, single 5 mg/kg oral dose, Table 1, read-out: Pharmacokinetic area under the plasma concentration Curve (rat) AUC0-∞
Property label: AUC(0-inf) (µM·h)

O=C(NS(=O)(=O)c1ccc(N[C@H](CCN2CC3CC2CO3)CSc2ccccc2)c(S(=O)(=O)C(F)(F)Cl)c1)c1ccc(N2CCN(CC3=C(c4ccc(Cl)cc4)CCCCC3)CC2)cc1 (some centres unmarked)    2.06

[P] O=C(NS(=O)(=O)c1ccc(N[C@H](CCN2CCOCC2)CSc2ccccc2)c(S(=O)(=O)C(F)(F)F)c1)c1ccc(N2CCN(CC3=C(c4ccc(Cl)cc4)CCCC3)CC2)cc1
[Q] O=C(NS(=O)(=O)c1ccc(N[C@H](CCN2CCCCCC2)CSc2ccccc2)c(S(=O)(=O)C(F)(F)F)c1)c1ccc(N2CCN(CC3=C(c4ccc(Cl)cc4)CCCC3)CC2)cc1
Q: Compare reported AUC(0-inf) values for P and Q . Which is lower? Indicate which entry you chose by stating its label.
A: Q

----------
Tested on: NCI-H146 human small cell lung carcinoma cells
Experiment: Cellular efficacy in human tumor cell line (MTS viability assay)
Assay type: cell-based
Conditions: NCI-H146; 10% human serum, 48 hours; Table 1; read-out: NCI-H146 Cellular Efficacy EC50
pEC50: −log10 of the molar value.
Property label: pEC50

O=C(NS(=O)(=O)c1ccc(N[C@H](CCN2CC3CC2CO3)CSc2ccccc2)c(S(=O)(=O)C(F)(F)Cl)c1)c1ccc(N2CCN(CC3=C(c4ccc(Cl)cc4)CCCCC3)CC2)cc1 (some centres unmarked) [Example 13]    7.72
CC1(C)CCC(CN2CCN(c3ccc(C(=O)NS(=O)(=O)c4ccc(N[C@H](CCN5C[C@@H]6C[C@H]5CO6)CSc5ccccc5)c(S(=O)(=O)C(F)(F)F)c4)cc3)CC2)=C(c2ccc(Cl)cc2)C1 [Example 36]    7.62
CC1(C)CCC(CN2CCN(c3ccc(C(=O)NS(=O)(=O)c4ccc(N[C@H](CCN5C[C@@H]6C[C@H]5CO6)CSc5ccccc5)c(S(=O)(=O)C(F)(F)Cl)c4)cc3)CC2)=C(c2ccc(Cl)cc2)C1 [Example 25]    7.79
CN(C)CC[C@H](CSc1ccccc1)Nc1ccc(S(=O)(=O)NC(=O)c2ccc(N3CCN(CC4=C(c5ccc(Cl)cc5)CCCC4)CC3)cc2)cc1S(=O)(=O)C(F)(F)F [Example 26]    7.61
O=C(NS(=O)(=O)c1ccc(N[C@H](CCN2CCCC2)CSc2ccccc2)c(S(=O)(=O)C(F)(F)Cl)c1)c1ccc(N2CCN(CC3=C(c4ccc(Cl)cc4)CCCCC3)CC2)cc1 [Example 32]    7.73

----------
System: NCI-H146 human small cell lung carcinoma cells
Experiment: Cellular efficacy in human tumor cell line (MTS viability assay)
Format: cell-based
Conditions: NCI-H146; 10% human serum, 48 hours; Table 1; read-out: NCI-H146 Cellular Efficacy EC50
pEC50: −log10 of the molar value.
Property label: pEC50

O=C(NS(=O)(=O)c1ccc(N[C@H](CCN2CCOCC2)CSc2ccccc2)c(S(=O)(=O)C(F)(F)F)c1)c1ccc(N2CCN(CC3=C(c4ccc(Cl)cc4)CCCC3)CC2)cc1 [Example 7]    7.23

[A] CC1(C)CCC(CN2CCN(c3ccc(C(=O)NS(=O)(=O)c4ccc(N[C@H](CCN5CCOCC5)CSc5ccccc5)c(S(=O)(=O)C(F)(F)F)c4)cc3)CC2)=C(c2ccc(Cl)cc2)C1 [Example 24]
[B] O=C(NS(=O)(=O)c1ccc(N[C@H](CCN2CCCC2)CSc2ccccc2)c(S(=O)(=O)C(F)(F)Cl)c1)c1ccc(N2CCN(CC3=C(c4ccc(Cl)cc4)CCCC3)CC2)cc1 [Example 35]
[C] CC1(C)CCC(c2ccc(Cl)cc2)=C(CN2CCN(c3ccc(C(=O)NS(=O)(=O)c4ccc(N[C@H](CCN5CC6CC5CO6)CSc5ccccc5)c(S(=O)(=O)C(F)(F)Cl)c4)cc3)CC2)C1 (stereo partly shown) [Example 11]
[D] O=C(NS(=O)(=O)c1ccc(N[C@H](CCN2CCOCC2)CSc2ccccc2)c(S(=O)(=O)C(F)(F)F)c1)c1ccc(N2CCN(Cc3ccccc3-c3ccc(Cl)cc3)CC2)cc1 [Example 39]
Q: Put the items in sequence by pEC50, from largest down. A ranking is expressed here by listing the labels in the requested order.
A: B, C, A, D

----------
The entries below are paired with their reported Ki.
Target: Bcl-2 protein (Homo sapiens, UniProt P10415, DELINS35-91DVEENRTEAPEGTESE, form not given)
Construct: fused on or other part: A short piece of the Bcl-xL (Q07817) loop replaces Bcl-2 loop residues 35-91; The C-terminal membrane anchor is absent
Sequence (P10415 with tags, fused parts or gaps with the stated changes): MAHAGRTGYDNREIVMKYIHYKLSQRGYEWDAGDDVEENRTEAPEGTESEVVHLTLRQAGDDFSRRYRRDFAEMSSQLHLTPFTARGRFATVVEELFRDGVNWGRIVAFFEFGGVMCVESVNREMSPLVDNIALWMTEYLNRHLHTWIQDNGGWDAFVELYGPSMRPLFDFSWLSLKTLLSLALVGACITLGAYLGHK
Experiment: Bcl-2 binding affinity, fluorescence polarization with fluorescein-labeled BAX peptide
Conditions: Wang's equation, read-out: Target Binding Affinity Ki (Bcl-2)

// below: answered compounds
CC(C)N(C)CC[C@H](CSc1ccccc1)Nc1ccc(S(=O)(=O)NC(=O)c2ccc(N3CCN(CC4=C(c5ccc(Cl)cc5)CC(C)(C)CC4)CC3)cc2)cc1S(=O)(=O)C(F)(F)Cl [Example 22]    ≤ 1 nM
CC(C)N(C)CC[C@H](CSc1ccccc1)Nc1ccc(S(=O)(=O)NC(=O)c2ccc(N3CCN(CC4=C(c5ccc(Cl)cc5)CC(C)(C)CC4)CC3)cc2)cc1S(=O)(=O)C(F)(F)F [Example 14]    ≤ 1 nM

Q: Give Ki (Bcl-2 protein (Homo sapiens, UniProt P10415, DELINS35-91DVEENRTEAPEGTESE, form not given)) of the following compound: O=C(NS(=O)(=O)c1ccc(N[C@H](CCN2CCOCC2)CSc2ccccc2)c(S(=O)(=O)C(F)(F)F)c1)c1ccc(N2CCN(Cc3ccccc3-c3ccc(Cl)cc3)CC2)cc1 [Example 39]
A: ≤ 1 nM
